Target: Chimeric OX40 construct 1546 (human; mouse) (UniProt P43489)
Sequence (P43489 other isoform, or with tags, fused parts or gaps mutant, form in doubt): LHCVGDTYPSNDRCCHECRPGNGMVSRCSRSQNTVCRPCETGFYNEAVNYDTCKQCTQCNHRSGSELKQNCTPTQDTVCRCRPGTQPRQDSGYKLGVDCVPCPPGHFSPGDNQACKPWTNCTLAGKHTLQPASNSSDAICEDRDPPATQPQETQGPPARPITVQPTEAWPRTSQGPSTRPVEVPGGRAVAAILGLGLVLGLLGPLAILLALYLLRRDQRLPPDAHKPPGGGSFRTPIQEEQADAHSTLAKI
Test: flow cytometry, 293-F cells transfected with the construct
Value type: relative MFI (fold over isotype control)
Please reply with the number alone, leaving off any unit.

Input line: Could you share which relative MFI (fold over isotype control) value was measured for 1514/1515 (antibody, V domains shown) VH: EVQLLESGGGLVQPGGSLRLSCAASGFTFGYYYMSWVRQAPGKGLEWVSGISSYGSYTYYADSVKGRFTISRDNSKNTLYLQMNSLRAEDTAVYYCARSGYSNWANSFDYWGQGTLVTVSS VL: DIQMTQSPSSLSASVGDRVTITCRASQSISSYLNWYQQKPGKAPKLLIYAASSLQSGVPSRFSGSGSGTDFTLTISSLQPEDFATYYCQQGDYTLFTFGQGTKLEIK ?
Output line: 0.9
